Endpoint Name: melting point (°C)

Known results for compounds:
{"Compound": "CNS(=O)(=O)c1ccc(C)cc1", "Measurement Unit": "°C", "Val": 78.5}
{"Compound": "COc1ccccc1NC(C)=O", "Measurement Unit": "°C", "Val": 87.5}
{"Compound": "CCN(CC)c1ccc(N)cc1", "Measurement Unit": "°C", "Val": 27}
{"Compound": "CN1C(=O)CC(c2ccccc2)C1=O (configuration not stated)", "Measurement Unit": "°C", "Val": 72}
{"Compound": "COC(=O)c1ccccc1OCc1ccccc1", "Measurement Unit": "°C", "Val": 47}
{"Compound": "CCOc1ccc(Br)cc1", "Measurement Unit": "°C", "Val": 4}
{"Compound": "CNc1c(C=O)c(=O)n(C)c(=O)n1C", "Measurement Unit": "°C", "Val": 203}
{"Compound": "COc1ccc2c3c1OC1CC(O)C=CC31CCN(C)C2 (configuration not stated)", "Measurement Unit": "°C", "Val": 126}
{"Compound": "O=C(O)CNC(=O)OCc1ccccc1", "Measurement Unit": "°C", "Val": 121}
{"Compound": "NC(=O)c1cccc(C(=O)O)c1", "Measurement Unit": "°C", "Val": 280}

P. Cc1ccccc1Oc1cccnn1
Q. O=S(=O)(Cl)c1cccc2cccnc12
R. Cc1cc(F)ccc1[N+](=O)[O-]
With regard to melting point, arrange the entries in ascending order, please. List each label, following the requested order.
R, P, Q
(R: 20 °C, P: 78 °C, Q: 129 °C)
